The measured values listed here are drawn from ChEMBL document CHEMBL1123909.

assayedSystem: Renin (Homo sapiens)
Sequence (P00797 whole entry): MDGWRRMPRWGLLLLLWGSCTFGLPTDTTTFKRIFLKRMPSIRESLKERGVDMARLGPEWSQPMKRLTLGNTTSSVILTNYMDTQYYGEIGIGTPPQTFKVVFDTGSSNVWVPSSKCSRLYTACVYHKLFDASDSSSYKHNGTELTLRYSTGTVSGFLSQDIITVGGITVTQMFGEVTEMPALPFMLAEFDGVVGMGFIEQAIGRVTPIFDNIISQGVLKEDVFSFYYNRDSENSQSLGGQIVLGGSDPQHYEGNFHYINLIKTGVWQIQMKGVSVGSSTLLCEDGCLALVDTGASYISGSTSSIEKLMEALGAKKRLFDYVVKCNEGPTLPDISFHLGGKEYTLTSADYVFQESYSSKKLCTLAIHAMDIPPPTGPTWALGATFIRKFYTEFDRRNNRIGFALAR
testProtocol: Inhibition of human renal renin at the pH optimum 6.0.
readoutLabel: log10 IC50 (log10 of the value in nM)
Log10 applied to IC50; unit prior to transform: nM.

Solved cases below.
CC(C)C[C@@H](NC(=O)[C@H](Cc1c[nH]cn1)NC(=O)[C@H](Cc1ccccc1)NC(=O)OC(C)(C)C)[C@H](O)CSc1ccccc1 = 2.98
CC(C)CCSC[C@@H](O)[C@@H](CC(C)C)NC(=O)[C@H](C)NC(=O)[C@H](Cc1ccccc1)NC(=O)OC(C)(C)C = 3.18
CC(C)CC[C@@H](O)[C@@H](CC(C)C)NC(=O)[C@H](Cc1c[nH]cn1)NC(=O)[C@H](Cc1ccc2ccccc2c1)NC(=O)OC(C)(C)C = 2.78
CC(C)C[C@@H](NC(=O)[C@H](Cc1c[nH]cn1)NC(=O)[C@H](Cc1ccccc1)NC(=O)OC(C)(C)C)[C@H](O)CS(=O)(=O)C(C)C = 2.30
CC(C)CCC[C@@H](O)[C@@H](CC(C)C)NC(=O)[C@H](C)NC(=O)[C@H](Cc1ccccc1)NC(=O)OC(C)(C)C = 3.54

// batch mode: one log10 IC50 value per listed entry
1. CC(C)CC[C@H](O)[C@H](CC(C)C)NC(=O)[C@H](C)NC(=O)[C@H](Cc1ccccc1)NC(=O)OC(C)(C)C
2. CC(C)C[C@@H](NC(=O)[C@H](C)NC(=O)[C@H](Cc1ccccc1)NC(=O)OC(C)(C)C)[C@H](O)CSCc1ccccc1

A:
3.30
4.00

###

assayedSystem: Renin (Homo sapiens)
Sequence (whole entry): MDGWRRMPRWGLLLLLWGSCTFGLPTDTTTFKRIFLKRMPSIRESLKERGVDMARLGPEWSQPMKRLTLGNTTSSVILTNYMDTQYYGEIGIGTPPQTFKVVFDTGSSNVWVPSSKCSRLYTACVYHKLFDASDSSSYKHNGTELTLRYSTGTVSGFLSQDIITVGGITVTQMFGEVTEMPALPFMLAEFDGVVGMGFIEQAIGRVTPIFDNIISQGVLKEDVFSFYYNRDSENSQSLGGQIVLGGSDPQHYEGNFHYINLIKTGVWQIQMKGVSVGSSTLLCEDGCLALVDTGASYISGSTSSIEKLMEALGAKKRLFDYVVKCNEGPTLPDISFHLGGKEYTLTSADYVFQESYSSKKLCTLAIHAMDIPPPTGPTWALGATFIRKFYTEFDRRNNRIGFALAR
testProtocol: Inhibition of human renal renin at the concentration of 10e-5 M.
readoutLabel: inhibition (%)
Numbers only, in %.

// batch mode: one inhibition value per listed entry
1. CC(C)C[C@@H](NC(=O)[C@H](C)NC(=O)[C@H](Cc1ccccc1)NC(=O)OC(C)(C)C)[C@H](O)C[S+]([O-])C1CCCCC1 (some centres undefined)
2. CC(C)C[C@@H](NC(=O)[C@H](Cc1ccc(O)cc1)NC(=O)[C@H](Cc1ccccc1)NC(=O)OC(C)(C)C)[C@H](O)CSc1ccccc1
3. CC(C)C[C@@H](NC(=O)[C@H](Cc1c[nH]cn1)NC(=O)[C@H](Cc1ccccc1)NC(=O)OC(C)(C)C)[C@H](O)COC(C)C

A:
1. 46
2. 21
3. 85

// batch mode: one inhibition value per listed entry
1. CC(C)C[C@@H](NC(=O)[C@H](C)NC(=O)[C@H](Cc1ccccc1)NC(=O)OC(C)(C)C)[C@H](O)CSC(C)(C)C
2. CC(C)CCC[C@@H](O)[C@@H](CC(C)C)NC(=O)[C@H](Cc1c[nH]cn1)NC(=O)[C@H](Cc1ccccc1)NC(=O)OC(C)(C)C
3. CC(C)CSC[C@@H](O)[C@@H](CC(C)C)NC(=O)[C@H](C)NC(=O)[C@H](Cc1ccccc1)NC(=O)OC(C)(C)C
4. CC(C)CCS(=O)(=O)C[C@@H](O)[C@@H](CC(C)C)NC(=O)[C@H](Cc1c[nH]cn1)NC(=O)[C@H](Cc1ccccc1)NC(=O)OC(C)(C)C

A:
88
97
89
94

// batch mode: one inhibition value per listed entry
1. CC(C)C[C@@H](NC(=O)[C@H](Cc1c[nH]cn1)NC(=O)[C@H](Cc1ccccc1)NC(=O)OC(C)(C)C)[C@H](O)CNC(C)C
2. CC(C)C[C@@H](NC(=O)[C@H](C)NC(=O)[C@H](Cc1ccccc1)NC(=O)OC(C)(C)C)[C@H](O)CSc1cccc2ccccc12

A:
1. 35
2. 7
